All figures here come from paper PMC11480844.

B1: H2-Kb / Ed8 (parent complex)
chain 1: AQSVTQPDARVTVSEGASLQLRCKYSYFGTPYLFWYVQYPRQGLQLLLKYYPGDPVVQGVNGFEAEFSKSNSSFHLRKASVHWSDWAVYFCAVSPGSGGKLTLGAGTRLQVNL
chain 2: DSGVVQSPRHIIKEKGGRSVLTCIPISGHSNVVWYQQTLGKELKFLIQHYEKVERDKGFLPSRFSVQQFDDYHSEMNMSALELEDSAMYFCASSPRASNYTFGSGTRLLVI
chain 3: not shown
chain 4: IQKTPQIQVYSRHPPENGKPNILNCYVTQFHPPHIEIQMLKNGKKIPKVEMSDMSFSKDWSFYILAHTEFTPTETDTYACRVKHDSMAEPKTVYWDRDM
chain 5: SIINFEKL

# Variants of: B1
# measurementNotes: % of reporter cells activated (NFAT-GFP), raw; further: test concentration or dose not given here
reportedMetric: ratio to parent

[1] chain 5 I2F
[2] chain 5 E6V
[3] chain 5 N4P
query: Please rank these variants by ratio to parent in descending order. Give the order by naming the labels one after another as requested.
result: 1, 2, 3

[1] chain 5 S1L
[2] chain 5 I2L
[3] chain 5 N4M
[4] chain 5 N4W
[5] chain 5 E6F
query: rank_up(items): orders items by reported ratio to parent in ascending numerical order. Give the order by naming the labels one after another as requested.
result: 3, 4, 5, 1, 2
(3: 0.00281, 4: 0.00716, 5: 0.0912, 1: 0.917, 2: 1.37)
